All figures here come from patent US20250147039A1.

experiment: Dissociation of chelates in aq. 6.0M HCl at 80° C. (acid decomplexation kinetic inertness) (Chart 17); type: physicochemical; settings: 1 hour
Kindly supply the reported fraction of intact chelate values for the records listed here.

Reference set, count: 6
{"columns": ["molecule", "endpoint_value"],
 "data": [
  ["O=C1C[N@@]2CC[N@]3CC[N@@](CC[N@](CC2)Cc2cccc(n2)-c2cnnn2Cc2cc(-c4ccccc4)cc(n2)C3)CC(=O)[O][Sm][O]1 [TD867]", "0%"],
  ["O=C1C[N@@]2CC[N@]3CC[N@@](CC[N@](CC2)Cc2cccc(n2)-c2cnnn2Cc2cc(-c4ccccc4)cc(n2)C3)CC(=O)[O][Ho][O]1 [TD648]", "99%"],
  ["O=C1C[N@@]2CC[N@]3CC[N@@](CC[N@](CC2)Cc2cccc(n2)-c2cnnn2Cc2cc(-c4ccccc4)cc(n2)C3)CC(=O)[O][Nd][O]1 [TD868]", "0%"],
  ["O=C1C[N@@]2CC[N@]3CC[N@@](CC[N@](CC2)Cc2cccc(n2)-c2cnnn2Cc2cc(-c4ccc(C(=O)O)cc4)cc(n2)C3)CC(=O)[O][Lu][O]1 [TD748]", "100%"],
  ["O=C1C[N@@]2CC[N@]3CC[N@@](CC[N@](CC2)Cc2cccc(n2)-c2cnnn2Cc2cc(-c4ccccc4)cc(n2)C3)CC(=O)[O][Lu][O]1 [TD522]", "100%"],
  ["O=C1C[N@@]2CC[N@]3CC[N@@](CC[N@](CC2)Cc2cccc(n2)-c2cnnn2Cc2cc(-c4ccccc4)cc(n2)C3)CC(=O)[O][Tb][O]1 [TD600]", "72%"]
]}

For the 4 molecules below, give their fraction of intact chelate values.
1. O=C1C[N@@]2CC[N@]3CC[N@@](CC[N@](CC2)Cc2cccc(n2)-c2cnnn2Cc2cc(-c4ccccc4)cc(n2)C3)CC(=O)[O][Tm][O]1 [TD601]
2. O=C1C[N@@]2CC[N@]3CC[N@@](CC[N@](CC2)Cc2cccc(n2)-c2cn(nn2)Cc2cc(-c4ccccc4)cc(n2)C3)CC(=O)[O][Gd][O]1 [TD875]
3. O=C1C[N@@]2CC[N@]3CC[N@@](CC[N@](CC2)Cc2cccc(n2)-c2cnnn2Cc2cc(-c4ccccc4)cc(n2)C3)CC(=O)[O][Dy][O]1 [TD866]
4. O=C1C[N@@]2CC[N@]3CC[N@@](CC[N@](CC2)Cc2cccc(n2)-c2cnnn2Cc2cc(-c4ccccc4)cc(n2)C3)CC(=O)[O][Cd][O]1 [TD880]

Completion:
1: 100%; 2: 0%; 3: 95%; 4: 43%

###

experiment: Dissociation of chelates in aq. 0.1M HCl at RT (acid decomplexation kinetic inertness) (Chart 20); type: physicochemical; details: 1 month
Kindly supply the reported fraction of intact chelate values for the records listed here.
Numbers only, in %.

{"columns": ["compound_smiles", "fraction of intact chelate (%)"],
 "data": [
  ["O=C1C[N@@]2CC[N@]3CC[N@@](CC[N@](CC2)Cc2cccc(n2)-c2cnnn2Cc2cc(-c4ccccc4)cc(n2)C3)CC(=O)[O][Y][O]1", 100],
  ["O=C1C[N@@]2CC[N@]3CC[N@@](CC[N@](CC2)Cc2cccc(n2)-c2cnnn2Cc2cc(-c4ccccc4)cc(n2)C3)CC(=O)[O][Dy][O]1", 100],
  ["O=C1C[N@@]2CC[N@]3CC[N@@](CC[N@](CC2)Cc2cccc(n2)-c2cnnn2Cc2cc(-c4ccccc4)cc(n2)C3)CC(=O)[O][Yb][O]1", 100]
]}

Shifting focus to the molecule that follows.
Prompt: Entry `O=C1C[N@@]2CC[N@]3CC[N@@](CC[N@](CC2)Cc2cccc(n2)-c2cnnn2Cc2cc(-c4ccccc4)cc(n2)C3)CC(=O)[O][Ce][O]1` : reported fraction of intact chelate = ?
Completion: 0
